Reference for the values: paper PMC2963086

- measuredTarget: Formate dehydrogenase (FDH) (Candida boidinii, UniProt O13437)
- Sequence (O13437 whole entry): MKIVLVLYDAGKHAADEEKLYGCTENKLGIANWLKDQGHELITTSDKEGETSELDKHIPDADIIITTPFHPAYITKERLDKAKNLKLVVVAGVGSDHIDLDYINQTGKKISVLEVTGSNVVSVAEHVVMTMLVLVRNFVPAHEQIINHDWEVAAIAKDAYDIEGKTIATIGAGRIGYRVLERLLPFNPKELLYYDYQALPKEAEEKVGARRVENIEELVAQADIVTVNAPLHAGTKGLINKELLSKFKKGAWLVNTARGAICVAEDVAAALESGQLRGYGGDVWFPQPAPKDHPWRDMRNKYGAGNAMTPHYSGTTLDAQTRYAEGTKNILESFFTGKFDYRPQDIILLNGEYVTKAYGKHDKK
- experiment: ITC binding of azo-NAD^+ to formate dehydrogenase
- measurementConditions: Kd (Binary), FDH binary complex, pH 7.5
quantityMeasured: pKd
Numbers only, as −log10 of the molar value.

Task: Item under review: [N-]=[N+]=Nc1ccc[n+]([C@@H]2O[C@H](COP(=O)([O-])OP(=O)(O)OC[C@H]3O[C@@H](n4cnc5c(N)ncnc54)[C@H](O)[C@@H]3O)[C@@H](O)[C@H]2O)c1 [azo-NAD^+] . Reported pKd?
Result: 4.20

* * *

- measuredTarget: Malate dehydrogenase (MDH) (Sus scrofa)
- Sequence (P00346 25-338): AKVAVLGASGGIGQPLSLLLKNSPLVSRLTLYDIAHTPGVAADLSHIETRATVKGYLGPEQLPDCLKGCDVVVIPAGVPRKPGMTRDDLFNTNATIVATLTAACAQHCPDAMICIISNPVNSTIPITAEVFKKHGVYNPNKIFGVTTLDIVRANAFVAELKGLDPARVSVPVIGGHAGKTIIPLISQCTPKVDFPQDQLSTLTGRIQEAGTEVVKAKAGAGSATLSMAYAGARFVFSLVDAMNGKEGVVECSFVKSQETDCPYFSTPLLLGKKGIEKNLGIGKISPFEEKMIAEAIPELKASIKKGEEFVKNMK
- experiment: ITC binding of azo-NAD^+ to malate dehydrogenase
- Format: Porcine heart mitochondria (sus scrofa)
- measurementConditions: Kd (Ternary), MDH ternary complex with substrate malate, pH 7.5
quantityMeasured: Kd (µM)
One number for each entry, in µM.

Task: Please tell me: Kd of `[N-]=[N+]=Nc1ccc[n+]([C@@H]2O[C@H](COP(=O)([O-])OP(=O)(O)OC[C@H]3O[C@@H](n4cnc5c(N)ncnc54)[C@H](O)[C@@H]3O)[C@@H](O)[C@H]2O)c1` , system Malate dehydrogenase (MDH) (Sus scrofa)?
Result: 70
